Test system: M14
Experiment: NCI tumour cell line growth inhibition, 48 h
The source made the active and inactive calls. Cut-off read from the data, not from the text of the source: active = GI50 up to about 1.1 µM and inactive = higher.
Log the outcome using a class from active, inactive

- Compound: "CC(=O)O[C@@H]1[C@@H](C)[C@]2(CC(c3ccoc3)OC2O)C2CCC3O[C@]3(C)[C@]2(C)[C@@H]1OC(C)=O (stereo partly drawn)"
  Assay Target: "M14"
  Group Label: "inactive"
- Compound: "CCN(CC)CCC(=O)OC1C(C)=CC(C)C(=O)CC(C(C)CC2CCC(O)C(OC)C2)OC(=O)C2CCCCN2C(=O)C(=O)[C@@]2(O)OC(CCC2C)CC(OC)\\C(C)=C/C=C/C=C/C(C)CC(C)C(=O)C1OC (stereo partly drawn)"
  Assay Target: "M14"
  Group Label: "inactive"
- Compound: "O=C(Cc1ccccc1)N/N=C/c1ccccc1O"
  Assay Target: "M14"
  Group Label: "inactive"
- Compound: "O=C1c2ccccc2C2=Nc3ccncc3CN12"
  Assay Target: "M14"
  Group Label: "inactive"
- Compound: "Brc1ccccc1-c1ncc(-c2ccccc2)o1"
  Assay Target: "M14"
  Group Label: "inactive"
- Compound: "O=[N+]([O-])c1ccc(NN/N=N/c2ccc(-c3nc4ccccc4[nH]3)cc2)c([N+](=O)[O-])c1"
  Assay Target: "M14"
  Group Label: "inactive"
- Compound: "N#CC1([N+](=O)[O-])C=C1c1ccccc1 (stereo not drawn)"
  Assay Target: "M14"
  Group Label: "inactive"

Now let's try a different one.
input: Field: outcome | Entry: COc1cccc2c1C(=O)c1c(O)c3c(c(O)c1C2=O)C[C@@](O)(C(=O)CO)CC3OC1CC(N(C)CCOCC(OC(C)=O)OC(C)=O)C(O)C(C)O1 (stereo partly drawn)
output: active
